Each item that follows carries a reported ΔTm at 100 µM.
- System: recombinant USP1 protein (Homo sapiens, UniProt O94782, DEL125-138/DEL229-408/DEL608-737)
- Assay name: Binding affinity to recombinant USP1 protein by differential scanning fluorimetry
- Experimental parameters: compound 100 µM; 0.03 mg/mL USP1 (Δ1-66, Δ125-138, Δ229-408, Δ608-737); Tm with compound minus Tm with DMSO; read-out: ΔTm (°C)

COc1ncnc(C2CC2)c1-c1ncc2cc(C(=O)N(C)CC(F)(F)F)n(Cc3ccc(-c4nc(C(F)(F)F)cn4C(C)C)cc3)c2n1
> 5 °C

// Input: "[2H]C([2H])([2H])Oc1ncnc(C2CC2)c1-c1ncc2cc(C(=O)NC)n(Cc3ccc(-c4nc(C(F)(F)F)cn4C(C)C)cc3)c2n1" . Output its ΔTm at 100 µM only.
> 5 °C

// Input: "COc1ncnc(C2CC2)c1-c1ncc2cc(C(=O)NC3(C)CC(F)(F)C3)n(Cc3ccc(-c4nc(C(F)(F)F)cn4C(C)C)cc3)c2n1" . Output its ΔTm at 100 µM only.
> 5 °C

---

- System: recombinant USP1 protein (Homo sapiens, UniProt O94782, DEL125-138/DEL229-408/DEL608-737)
- Sequence (O94782 with tags, fused parts or gaps DEL125-138/DEL229-408/DEL608-737): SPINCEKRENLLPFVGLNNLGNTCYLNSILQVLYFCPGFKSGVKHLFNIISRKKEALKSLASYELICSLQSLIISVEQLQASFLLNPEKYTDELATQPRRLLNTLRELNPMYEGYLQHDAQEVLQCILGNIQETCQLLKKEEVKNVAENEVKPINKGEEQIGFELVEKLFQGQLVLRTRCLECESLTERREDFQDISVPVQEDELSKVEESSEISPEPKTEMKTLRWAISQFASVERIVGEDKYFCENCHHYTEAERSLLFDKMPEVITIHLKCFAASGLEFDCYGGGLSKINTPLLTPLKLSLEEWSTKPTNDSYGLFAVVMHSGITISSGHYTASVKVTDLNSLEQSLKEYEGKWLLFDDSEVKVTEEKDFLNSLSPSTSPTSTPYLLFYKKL
- Assay name: Binding affinity to recombinant USP1 protein by differential scanning fluorimetry
- Experimental parameters: compound 100 µM; 0.03 mg/mL USP1 (Δ1-66, Δ125-138, Δ229-408, Δ608-737); Tm with compound minus Tm with DMSO; read-out: ΔTm (°C)
Each item that follows carries a reported ΔTm at 100 µM.

Worked set:
CNC(=O)c1cc2cnc(-c3c(OC)ncnc3C3CC3)nc2n1Cc1ccc(-c2nc(C(F)(F)F)cn2C(C)C)c(F)c1
> 5 °C
CNC(=O)c1cc2cnc(-c3c(OC)ncnc3C3CC3)nc2n1Cc1ccc(-n2nc(C(F)(F)F)cc2C(=O)O)cc1
< 5 °C
[2H]C([2H])([2H])N(C(=O)c1cc2cnc(-c3c(OC)ncnc3C3CC3)nc2n1Cc1ccc(-c2nc(C(F)(F)F)cn2C)cc1)C([2H])([2H])[2H]
> 5 °C

// Input: "COc1ncnc(C2CC2)c1-c1ncc2cc(C(=O)N3CCN(C)CC3)n(Cc3ccc(-c4nc(C(F)(F)F)cn4C(C)C)cc3)c2n1" . Output its ΔTm at 100 µM only.
> 5 °C

// Input: "CNC(=O)c1cc2cnc(-c3c(OC)ncnc3C3CC3)nc2n1Cc1ccc(-n2nc(C(C)(C)O)cc2C)cc1" . Output its ΔTm at 100 µM only.
> 5 °C

// Input: "COc1ncnc(C2CC2)c1-c1ncc2cc(C(=O)N[C@@H](C)CO)n(Cc3ccc(-c4nc(C(F)(F)F)cn4C)cc3)c2n1" . Output its ΔTm at 100 µM only.
> 5 °C

// Input: "COc1ncnc(C2CC2)c1-c1ncc2cc(C(=O)NC3CC3)n(Cc3ccc(-c4nc(C(F)(F)F)cn4C(C)C)cc3)c2n1" . Output its ΔTm at 100 µM only.
> 5 °C

// Input: "CNC(=O)c1cc2cnc(-c3cccc4c3N(C)CC4)nc2n1Cc1ccc(-c2nc(C(F)(F)F)cn2C)cc1" . Output its ΔTm at 100 µM only.
< 5 °C

// Input: "COc1ncnc(C2CC2)c1-c1ncc2cc(C(=O)N3CCC4(CC3)CNCCO4)n(Cc3ccc(-c4nc(C(F)(F)F)cn4C(C)C)cc3)c2n1" . Output its ΔTm at 100 µM only.
> 5 °C

// Input: "COc1ncnc(C2CC2)c1-c1ncc2cc(C(=O)N3CCN(C)CC3)n(Cc3ccc(-c4nc(C(F)(F)F)cn4C)cc3)c2n1" . Output its ΔTm at 100 µM only.
> 5 °C

---

- System: recombinant USP1 protein (Homo sapiens, UniProt O94782, DEL125-138/DEL229-408/DEL608-737)
- Sequence (O94782 with tags, fused parts or gaps DEL125-138/DEL229-408/DEL608-737): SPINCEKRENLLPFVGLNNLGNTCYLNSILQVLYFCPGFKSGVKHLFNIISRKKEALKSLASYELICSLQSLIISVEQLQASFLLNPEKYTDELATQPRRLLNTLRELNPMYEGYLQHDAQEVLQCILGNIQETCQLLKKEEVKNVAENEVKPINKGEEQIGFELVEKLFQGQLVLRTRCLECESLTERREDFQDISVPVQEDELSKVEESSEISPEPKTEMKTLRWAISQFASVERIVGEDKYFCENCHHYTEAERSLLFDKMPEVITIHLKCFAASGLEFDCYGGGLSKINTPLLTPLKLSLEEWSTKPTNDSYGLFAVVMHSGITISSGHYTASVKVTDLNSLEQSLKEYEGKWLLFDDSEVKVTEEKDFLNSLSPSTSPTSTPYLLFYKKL
- Assay name: Binding affinity to recombinant USP1 protein by differential scanning fluorimetry
- Experimental parameters: compound 100 µM; 0.03 mg/mL USP1 (Δ1-66, Δ125-138, Δ229-408, Δ608-737); Tm with compound minus Tm with DMSO; read-out: ΔTm (°C)
Each item that follows carries a reported ΔTm at 100 µM.

COc1ncnc(C2CC2)c1-c1ncc2cc(C(=O)N3CC(N)C3)n(Cc3ccc(-c4nc(C(F)(F)F)cn4C(C)C)cc3)c2n1
> 5 °C

// Input: "COc1ncnc(C2CC2)c1-c1ncc2cc(C(=O)NCC(C)=O)n(Cc3ccc(-c4nc(C(F)(F)F)cn4C(C)C)cc3)c2n1" . Output its ΔTm at 100 µM only.
> 5 °C

// Input: "[2H]C([2H])([2H])n1cc(C(F)(F)F)nc1-c1ccc(Cn2c(C(=O)NC)cc3cnc(-c4c(OC)ncnc4C4CC4)nc32)cc1" . Output its ΔTm at 100 µM only.
> 5 °C

---

Each item that follows carries a reported ΔTm at 100 µM.
- System: recombinant USP1 protein (Homo sapiens, UniProt O94782, DEL125-138/DEL229-408/DEL608-737)
- Assay name: Binding affinity to recombinant USP1 protein by differential scanning fluorimetry
- Experimental parameters: compound 100 µM; 0.03 mg/mL USP1 (Δ1-66, Δ125-138, Δ229-408, Δ608-737); Tm with compound minus Tm with DMSO; read-out: ΔTm (°C)

Worked set:
CCn1cnc(C2CC2)c(-c2ncc3cc(C(=O)NC)n(Cc4ccc(-c5nc(C(F)(F)F)cn5C(C)C)cc4)c3n2)c1=O
< 5 °C
COc1ncnc(C2CC2)c1-c1ncc2cc(C(=O)Nc3cccc4ccccc34)n(Cc3ccc(-c4nc(C(F)(F)F)cn4C(C)C)cc3)c2n1
> 5 °C

Shifting focus to the compound that follows.
// Input: "CCN(CC)C(=O)c1cc2cnc(-c3c(OC)ncnc3C3CC3)nc2n1Cc1ccc(-c2nc(C(F)(F)F)cn2C(C)C)cc1" . Output its ΔTm at 100 µM only.
> 5 °C

---

Each item that follows carries a reported ΔTm at 100 µM.
- System: recombinant USP1 protein (Homo sapiens, UniProt O94782, DEL125-138/DEL229-408/DEL608-737)
- Sequence (O94782 with tags, fused parts or gaps DEL125-138/DEL229-408/DEL608-737): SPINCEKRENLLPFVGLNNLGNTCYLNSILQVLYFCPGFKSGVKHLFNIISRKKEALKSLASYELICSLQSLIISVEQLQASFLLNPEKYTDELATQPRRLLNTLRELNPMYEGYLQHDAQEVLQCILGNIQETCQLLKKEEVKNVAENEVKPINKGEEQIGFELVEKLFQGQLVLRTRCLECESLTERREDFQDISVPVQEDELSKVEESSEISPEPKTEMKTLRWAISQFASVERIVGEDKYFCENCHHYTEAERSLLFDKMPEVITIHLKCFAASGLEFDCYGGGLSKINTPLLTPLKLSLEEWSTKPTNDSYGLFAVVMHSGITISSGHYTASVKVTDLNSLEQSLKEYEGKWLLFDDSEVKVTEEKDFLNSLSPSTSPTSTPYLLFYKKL
- Assay name: Binding affinity to recombinant USP1 protein by differential scanning fluorimetry
- Experimental parameters: compound 100 µM; 0.03 mg/mL USP1 (Δ1-66, Δ125-138, Δ229-408, Δ608-737); Tm with compound minus Tm with DMSO; read-out: ΔTm (°C)

Worked set:
CNC(=O)c1cc2cnc(-c3c(O)ncnc3C3CC3)nc2n1Cc1ccc(-c2nc(C(F)(F)F)cn2C)cc1
< 5 °C
COc1ncnc(C2CC2)c1-c1ncc2cc(C(=O)NC3CCNC3)n(Cc3ccc(-c4nc(C(F)(F)F)cn4C(C)C)cc3)c2n1 (stereo not shown)
> 5 °C
COc1ncnc(C2CC2)c1-c1ncc2cc(C(=O)NC34CC(F)(C3)C4)n(Cc3ccc(-c4nc(C(F)(F)F)cn4C(C)C)cc3)c2n1
> 5 °C
COc1ncnc(C2CC2)c1-c1ncc2cc(C(=O)N3C[C@H](O)[C@H]3C)n(Cc3ccc(-c4nc(C(F)(F)F)cn4C(C)C)cc3)c2n1
> 5 °C
COc1ncnc(C2CC2)c1-c1ncc2cc(C(=O)Nc3ccc(CN(C)C)cc3)n(Cc3ccc(-c4nc(C(F)(F)F)cn4C(C)C)cc3)c2n1
> 5 °C

// Input: "COc1ncnc(C2CC2)c1-c1ncc2cc(C(=O)N[C@@H]3CCN(C)[C@H](C)C3)n(Cc3ccc(-c4nc(C(F)(F)F)cn4C)cc3)c2n1" . Output its ΔTm at 100 µM only.
> 5 °C

// Input: "COc1ncnc(C2CC2)c1-c1ncc2cc(C(=O)NC[C@H](C)OC)n(Cc3ccc(-c4nc(C(F)(F)F)cn4C(C)C)cc3)c2n1" . Output its ΔTm at 100 µM only.
> 5 °C

Cited source: patent EP4806898A1
